- Test system: Vero E6 infected with SARS-CoV-2
- assayExplanation: morphology score (similarity to uninfected cells); higher = more like uninfected cells
- protocolConditions: 24 h
resultType: morphology score
// return a plain number; no unit text

Here is how some molecules turned out for morphology score.
- Cc1cc(-c2ccc(/N=N/c3ccc4c(S(=O)(=O)O)cc(S(=O)(=O)O)c(N)c4c3O)c(C)c2)ccc1/N=N/c1ccc2c(S(=O)(=O)O)cc(S(=O)(=O)O)c(N)c2c1O [evans-blue] (0.833333 µM): -0.0473
- NCC(O)(CS(=O)(=O)O)c1ccc(Cl)cc1 (configuration not stated) [2-hydroxysaclofen] (10 µM): 0.266
- CCC[N+]12[C@H](O)[C@@H](CC)[C@@H]3C[C@H]1[C@@H]1N(C)c4ccccc4[C@]14C[C@H]2[C@@H]3[C@H]4O [neo-gilurytmal] (10 µM): -0.0363
- Oc1ccc(OC2CCCCO2)cc1 (configuration not stated) [deoxyarbutin] (10 µM): 0.198
- O=C(O)c1ccccc1 [benzoic-acid] (10 µM): 0.0363

For record CN1C(=O)N(c2cc(Cl)cc(Cl)c2)C(=O)[C@@]1(C)Cc1ccc(Br)cc1 (10 µM) the listed morphology score is 0.25

For record NC(Cc1ccc(I)cc1)C(=O)O (stereo in doubt) [4-iodo-L-phenylalanine] (10 µM) the listed morphology score is 0.202

###

- Test system: Vero E6 infected with SARS-CoV-2
- assayExplanation: inhibition of SARS-CoV-2 cytopathic effect; higher = more antiviral protection, active = above 15
- protocolConditions: 833.33 nM; 48 h
inhibition of SARS-CoV-2 cytopathic effect: recorded values
Express the result in % but write the number alone.

Here is how some molecules turned out for inhibition of SARS-CoV-2 cytopathic effect.
• Cn1cc(-c2ccc(S(=O)(=O)n3ccc(/C=C/C(=O)Nc4ccccc4N)c3)cc2)cn1 = -4.65
• Clc1ccc2c(c1)N=C(N1CCNCC1)c1ccccc1N2 = 2.8
• COc1ccc2[nH]c([S+]([O-])Cc3ncc(C)c(OC)c3C)nc2n1 (configuration not stated) = -11.3

For record Cc1c(N)nc([C@H](CC(N)=O)NC[C@H](N)C(N)=O)nc1C(=O)N[C@H](C(=O)N[C@H](C)[C@@H](O)[C@H](C)C(=O)N[C@H](C(=O)NCCc1nc(-c2nc(C(=O)NCCCNCCCCN)cs2)cs1)[C@@H](C)O)[C@@H](O[C@@H]1O[C@@H](CO)[C@@H](O)[C@H](O)[C@@H]1O[C@@H]1O[C@H](CO)[C@@H](O)[C@H](OC(N)=O)[C@@H]1O)c1cnc[nH]1 the listed inhibition of SARS-CoV-2 cytopathic effect is -8.93

For record O=C(Nc1ccc(Cl)cc1)Nc1cccc(-c2cccc(N3CCCC3)n2)c1 the listed inhibition of SARS-CoV-2 cytopathic effect is -4.04

For record Oc1nc(O)c2cn[nH]c2n1 the listed inhibition of SARS-CoV-2 cytopathic effect is -2.52

For record O=c1sn(-c2cccc3ccccc23)c(=O)n1Cc1ccccc1 the listed inhibition of SARS-CoV-2 cytopathic effect is 0.87

###

- Test system: Vero E6 infected with SARS-CoV-2
- assayExplanation: inhibition of SARS-CoV-2 cytopathic effect; higher = more antiviral protection, active = above 15
- protocolConditions: 8.33 nM; 48 h
resultType: inhibition of SARS-CoV-2 cytopathic effect (%)
Express the result in % but write the number alone.

* CNS(=O)(=O)Nc1nccc(Cc2c(C)c3ccc(Oc4ncccn4)cc3oc2=O)c1F | -3.18
* COc1cc(OC)c(C(=O)CCCN2CCCC2)c(OC)c1 | 0.64
* CCN(CC)CCCCNc1ncc2cc(-c3c(Cl)cccc3Cl)c(NC(=O)NC(C)(C)C)nc2n1 | -1.31
* O=NO [sodium-nitrite] | -0.03
* NCC(=O)N[C@@H](CCC(N)=O)C(=O)O | -1.25

For record CC(C)(C)CC(=O)Nc1c(F)cc(C(=O)/N=c2\sccn2COP(=O)(O)O)cc1F the listed inhibition of SARS-CoV-2 cytopathic effect is -0.74

For record O=P1(NCCCl)OCCCN1CCCl (stereo not drawn) [ifosfamide] the listed inhibition of SARS-CoV-2 cytopathic effect is -2.31

For record Cc1nc2sccn2c(=O)c1CCN1CCC(=C(c2ccccc2)c2ccc(F)cc2)CC1 the listed inhibition of SARS-CoV-2 cytopathic effect is -2.89
